Assay: Solubility tests in water and buffered aqueous solutions
Type: physicochemical
Settings: aqueous buffer, thermodynamic from solid; buffered aqueous solution at pH 8; read-out: concentration of saturated solution
Experimental: The excellent solubility of the bare chromophore in aqueous solution already confers to Hydrodabcyl several practical advantages, e.g., aqueous solutions of Hydrodabcyl are easier to prepare and glassware can be more readily cleansed. […] Buffered solutions (50 mM sodium phosphate) have been prepared at four different pH: 8.0, 7.0, 6.0 and 5.5, respectively. […] To confirm its solubility, the absorbance of Hydrodabcyl was monitored as function of its concentration. […]
Parameter Measured: solubility thermodynamic (mM)
// return numeric value only (unit: mM, not printed)

Fill blank: measured solubility thermodynamic of the compound CN(C)c1cc(O)c(/N=N/c2ccc(C(=O)O)c(O)c2)c(O)c1 [Hydrodabcyl] is ____.
25

###

system: EaHy.926; experiment: Cytotoxicity assay, EaHy.926; type: cell-based; settings: Homo sapiens, EA.hy 926, incubation for 72 hours, 5 to 100 μM
Parameter Measured: IC50

Query the reported IC50 for EaHy.926; item: CN(C)c1cc(O)c(/N=N/c2ccc(C(=O)O)c(O)c2)c(O)c1 [Hydrodabcyl]
> 50 µM

###

experiment: Solubility tests in water and buffered aqueous solutions; assay type: physicochemical; details: thermodynamic from solid; Water, 20° C.; pH = 4.5; read-out: Solubility
Parameter Measured: solubility

Requested read-out: solubility. Entry: CN(C)c1cc(O)c(/N=N/c2ccc(C(=O)O)c(O)c2)c(O)c1 [Hydrodabcyl]
571 µM
